All figures here come from ChEMBL document CHEMBL1145640.

Exercise: for every item that follows, state its recorded EC50.
- target-of-assay: Glutamate NMDA receptor; GRIN1/GRIN2A (Homo sapiens, UniProt Q05586+Q12879)
- experiment-notes: Activity at NR1/NR2A receptor expressed in xenopus oocytes assessed as effect on L-glutamate and glycine-induced current response

Entry C=C(CN1CCC(Cc2ccccc2)CC1)C(=O)c1ccc(OC)cc1 : reported EC50 = ?
> 100 µM

I would be grateful if you could share the reported EC50 for CC(C(=O)c1ccc(NC(=O)CCl)cc1)N1CCC(Cc2ccccc2)CC1 (stereo not drawn) .
> 100 µM

EC50 lookup needed for O=C(CN1CCC(Cc2ccc(N=C=S)cc2)CC1)c1ccc(O)cc1 , thanks.
> 100 µM

====

- experiment-notes: Stability in frogs Ringer buffer by HPLC
- Format: physicochemical
- conditions-used: frog's Ringer buffer
measurement-name: half-life (h)
Please respond with the number in h and leave the unit unwritten.

half-life for C=C(CN1CCC(Cc2ccccc2)CC1)C(=O)c1ccc([N+](=O)[O-])cc1 ?
5

Please report the recorded half-life for CC(C(=O)c1ccc(N=C=S)cc1)N1CCC(Cc2ccccc2)CC1 (stereo not given) .
20

Reported half-life for C=C(CN1CCC(Cc2ccccc2)CC1)C(=O)c1ccc(OC)cc1 : what is it?
5

====

- target-of-assay: Glutamate NMDA receptor; GRIN1/GRIN2B (Homo sapiens, UniProt Q05586+Q13224)
- Sequence (Q13224 whole entry, other chains not shown, the tested form may be a part): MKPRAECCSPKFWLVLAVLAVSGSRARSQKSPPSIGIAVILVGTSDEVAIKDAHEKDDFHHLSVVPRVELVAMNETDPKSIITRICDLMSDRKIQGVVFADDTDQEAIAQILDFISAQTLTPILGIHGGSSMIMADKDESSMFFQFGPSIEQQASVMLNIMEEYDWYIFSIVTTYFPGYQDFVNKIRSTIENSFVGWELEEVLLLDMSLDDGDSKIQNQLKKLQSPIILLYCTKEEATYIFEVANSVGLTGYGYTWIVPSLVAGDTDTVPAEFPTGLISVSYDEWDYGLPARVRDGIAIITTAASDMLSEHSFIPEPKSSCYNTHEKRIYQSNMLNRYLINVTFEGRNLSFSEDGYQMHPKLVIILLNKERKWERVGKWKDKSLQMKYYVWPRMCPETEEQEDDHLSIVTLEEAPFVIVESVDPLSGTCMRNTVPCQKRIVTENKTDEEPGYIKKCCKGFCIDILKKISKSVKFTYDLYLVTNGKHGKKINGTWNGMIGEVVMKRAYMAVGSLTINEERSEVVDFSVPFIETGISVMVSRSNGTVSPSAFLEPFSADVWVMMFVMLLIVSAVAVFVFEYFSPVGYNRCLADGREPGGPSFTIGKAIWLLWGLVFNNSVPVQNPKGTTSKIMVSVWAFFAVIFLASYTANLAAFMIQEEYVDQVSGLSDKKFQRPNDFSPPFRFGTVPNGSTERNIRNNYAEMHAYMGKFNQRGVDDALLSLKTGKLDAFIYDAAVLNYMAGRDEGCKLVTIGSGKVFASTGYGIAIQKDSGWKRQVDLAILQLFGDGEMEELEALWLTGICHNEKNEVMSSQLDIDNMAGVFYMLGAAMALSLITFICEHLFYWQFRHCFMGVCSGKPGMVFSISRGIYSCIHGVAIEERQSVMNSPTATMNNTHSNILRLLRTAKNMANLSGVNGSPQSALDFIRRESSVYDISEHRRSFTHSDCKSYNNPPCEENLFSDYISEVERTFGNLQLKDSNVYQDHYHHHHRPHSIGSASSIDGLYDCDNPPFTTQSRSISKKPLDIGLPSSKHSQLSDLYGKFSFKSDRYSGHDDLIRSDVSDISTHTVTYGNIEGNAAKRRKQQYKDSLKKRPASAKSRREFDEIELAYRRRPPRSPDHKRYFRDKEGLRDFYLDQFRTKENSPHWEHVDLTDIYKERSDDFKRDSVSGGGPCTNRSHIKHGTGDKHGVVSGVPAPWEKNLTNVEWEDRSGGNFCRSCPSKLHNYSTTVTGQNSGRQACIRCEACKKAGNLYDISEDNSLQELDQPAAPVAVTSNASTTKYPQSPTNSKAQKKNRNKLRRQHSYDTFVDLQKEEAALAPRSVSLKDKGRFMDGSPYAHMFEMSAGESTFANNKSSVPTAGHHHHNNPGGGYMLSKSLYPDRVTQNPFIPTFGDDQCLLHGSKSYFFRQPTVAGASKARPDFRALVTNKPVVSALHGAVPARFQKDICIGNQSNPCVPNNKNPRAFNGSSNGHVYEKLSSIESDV
- experiment-notes: Inhibition of N-terminal domain truncated NR1/NR2B receptor expressed in xenopus oocytes assessed as effect on L-glutamate and glycine-induced current response
- Assay type: cell-based, Oocyte
measurement-name: IC50 (µM)
Please respond with the number in µM and leave the unit unwritten.

What value of IC50 has been recorded for this entry: CC(C(=O)c1ccc(NC(=O)CCl)cc1)N1CCC(Cc2ccccc2)CC1 (configuration not stated)
230

Item under review: O=C(CN1CCC(Cc2ccc(N=C=S)cc2)CC1)c1ccc(O)cc1 . Reported IC50?
570

====

Give measured pIC50 for each item. Keep answers brief.
- target-of-assay: Glutamate NMDA receptor; GRIN1/GRIN2B (Homo sapiens, UniProt Q05586+Q13224)
- experiment-notes: Inhibition of NR1/NR2B receptor expressed in xenopus oocytes assessed as effect on L-glutamate and glycine-induced current response
- Type: cell-based, Oocyte
Just so you know, pIC50 here is -log10 of the concentration in molar units; reply with that number alone.

Report pIC50 for CC(C(=O)c1ccc(NC(=O)CCl)cc1)N1CCC(Cc2ccccc2)CC1 (stereo not drawn) please.
4.85

Given O=C(CN1CCC(Cc2ccc(N=C=S)cc2)CC1)c1ccc(O)cc1 , state its recorded pIC50.
4.80

Look at this compound and give its reported pIC50. C=C(CN1CCC(Cc2ccccc2)CC1)C(=O)c1ccc(OC)cc1
4.15

====

Give measured pKi for each item. Keep answers brief.
- target-of-assay: Glutamate receptor ionotropic, NMDA 2B (Rattus norvegicus)
- Sequence (Q00960 whole entry): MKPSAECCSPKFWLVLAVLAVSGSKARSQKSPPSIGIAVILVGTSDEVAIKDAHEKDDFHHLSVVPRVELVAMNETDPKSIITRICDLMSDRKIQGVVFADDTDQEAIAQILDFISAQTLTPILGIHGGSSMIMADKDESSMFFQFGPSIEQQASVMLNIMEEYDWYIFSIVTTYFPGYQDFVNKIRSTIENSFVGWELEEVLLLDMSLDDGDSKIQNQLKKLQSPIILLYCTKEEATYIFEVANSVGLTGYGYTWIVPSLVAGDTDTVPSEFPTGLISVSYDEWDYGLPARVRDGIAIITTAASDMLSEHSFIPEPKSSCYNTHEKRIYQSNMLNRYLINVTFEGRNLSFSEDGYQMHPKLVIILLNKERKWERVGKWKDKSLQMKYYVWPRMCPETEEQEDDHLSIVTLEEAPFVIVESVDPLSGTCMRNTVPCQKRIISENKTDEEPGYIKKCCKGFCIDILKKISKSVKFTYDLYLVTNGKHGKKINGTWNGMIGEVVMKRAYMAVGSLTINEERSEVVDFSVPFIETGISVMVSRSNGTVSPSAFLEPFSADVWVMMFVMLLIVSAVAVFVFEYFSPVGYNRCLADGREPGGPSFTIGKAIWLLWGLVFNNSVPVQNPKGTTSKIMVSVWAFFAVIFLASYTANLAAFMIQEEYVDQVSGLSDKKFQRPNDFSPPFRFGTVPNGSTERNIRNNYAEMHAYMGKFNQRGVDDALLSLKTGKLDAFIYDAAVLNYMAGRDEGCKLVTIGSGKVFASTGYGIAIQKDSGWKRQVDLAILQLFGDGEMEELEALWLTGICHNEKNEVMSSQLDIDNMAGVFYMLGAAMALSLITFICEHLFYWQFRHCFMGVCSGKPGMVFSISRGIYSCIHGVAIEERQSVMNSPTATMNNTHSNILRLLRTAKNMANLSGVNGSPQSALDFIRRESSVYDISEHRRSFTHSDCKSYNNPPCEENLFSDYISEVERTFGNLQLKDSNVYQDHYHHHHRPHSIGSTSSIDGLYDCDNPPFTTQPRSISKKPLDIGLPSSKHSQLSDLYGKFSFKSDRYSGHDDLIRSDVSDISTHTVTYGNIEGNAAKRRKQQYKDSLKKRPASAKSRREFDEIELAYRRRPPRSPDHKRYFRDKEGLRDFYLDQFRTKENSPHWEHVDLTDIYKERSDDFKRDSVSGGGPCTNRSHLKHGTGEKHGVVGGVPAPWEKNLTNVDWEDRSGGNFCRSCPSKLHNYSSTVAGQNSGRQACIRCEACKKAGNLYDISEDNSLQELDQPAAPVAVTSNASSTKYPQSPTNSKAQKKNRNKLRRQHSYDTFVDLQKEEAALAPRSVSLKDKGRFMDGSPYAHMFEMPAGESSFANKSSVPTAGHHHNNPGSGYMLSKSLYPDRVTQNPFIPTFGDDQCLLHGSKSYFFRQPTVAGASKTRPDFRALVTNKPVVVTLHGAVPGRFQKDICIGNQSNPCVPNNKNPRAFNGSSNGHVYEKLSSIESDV
pKi is a log-scale quantity: -log10 of the concentration expressed in molar.

Entry C=C(CN1CCC(Cc2ccccc2)CC1)C(=O)c1ccc(OC)cc1 has what pKi?
6.28

Given Oc1ccc(C(O)CN2CCC(Cc3ccccc3)CC2)cc1 (stereo unspecified) , state its recorded pKi.
7.21

Can you look up the measured pKi of CC(=O)Nc1ccc(C(=O)C(C)N2CCC(Cc3ccccc3)CC2)cc1 (stereo unspecified) for me?
6.97

Requested field: pKi. Item: CC(C(O)c1ccc(N)cc1)N1CCC(Cc2ccccc2)CC1 (racemic; threo)
6.52

# query: pKi of entry O=C(CN1CCC(Cc2ccc(N=C=S)cc2)CC1)c1ccc(O)cc1
6.61

Quick one: pKi of CC(C(=O)c1ccc(N)cc1)N1CCC(Cc2ccccc2)CC1 (stereo unspecified) ?
7.24

====

- target-of-assay: Glutamate receptor ionotropic, NMDA 2B (Rattus norvegicus)
measurement-name: Ki (nM)
Lab book: enter the figure in nM, no units written.

Value wanted: Ki (Glutamate receptor ionotropic, NMDA 2B (Rattus norvegicus)) of entry CC(C(=O)c1ccc(NC(=O)CCl)cc1)N1CCC(Cc2ccccc2)CC1 (stereo not drawn)
493

// lookup Ki | system=Glutamate receptor ionotropic, NMDA 2B (Rattus norvegicus) | key= CC(C(=O)c1ccc(N=C=S)cc1)N1CCC(Cc2ccccc2)CC1 (stereo not drawn)
679

What reported Ki corresponds to C=C(CN1CCC(Cc2ccccc2)CC1)C(=O)c1ccc([N+](=O)[O-])cc1 on Glutamate receptor ionotropic, NMDA 2B (Rattus norvegicus)?
248

====

- experiment-notes: Stability in frogs Ringer buffer in presence of N-acetyl cysteine methyl ester by HPLC
- Assay type: physicochemical
- conditions-used: frog's Ringer buffer with N-acetyl cysteine methyl ester
Rule: half-life below 60 min gives T, anything at or above gives F.

Is it true that half-life reported for C=C(CN1CCC(Cc2ccccc2)CC1)C(=O)c1ccc([N+](=O)[O-])cc1 is less than 60 min?
F

Given O=C(CN1CCC(Cc2ccc(N=C=S)cc2)CC1)c1ccc(O)cc1 , is recorded half-life strictly lower than 60 min?
T

hey, is half-life for CC(C(=O)c1ccc(NC(=O)CCl)cc1)N1CCC(Cc2ccccc2)CC1 (stereo not given) lower than 60 min or not?
F

Please check: half-life for CC(C(=O)c1ccc(N=C=S)cc1)N1CCC(Cc2ccccc2)CC1 (stereo not given) , strictly under 60 min or not?
T

Identify whether the molecule C=C(CN1CCC(Cc2ccccc2)CC1)C(=O)c1ccc(OC)cc1 records half-life below 60 min.
T

====

- target-of-assay: Glutamate receptor ionotropic, NMDA 2B (Rattus norvegicus) (UniProt Q00960)
- Sequence (Q00960 27-1482 limits assumed): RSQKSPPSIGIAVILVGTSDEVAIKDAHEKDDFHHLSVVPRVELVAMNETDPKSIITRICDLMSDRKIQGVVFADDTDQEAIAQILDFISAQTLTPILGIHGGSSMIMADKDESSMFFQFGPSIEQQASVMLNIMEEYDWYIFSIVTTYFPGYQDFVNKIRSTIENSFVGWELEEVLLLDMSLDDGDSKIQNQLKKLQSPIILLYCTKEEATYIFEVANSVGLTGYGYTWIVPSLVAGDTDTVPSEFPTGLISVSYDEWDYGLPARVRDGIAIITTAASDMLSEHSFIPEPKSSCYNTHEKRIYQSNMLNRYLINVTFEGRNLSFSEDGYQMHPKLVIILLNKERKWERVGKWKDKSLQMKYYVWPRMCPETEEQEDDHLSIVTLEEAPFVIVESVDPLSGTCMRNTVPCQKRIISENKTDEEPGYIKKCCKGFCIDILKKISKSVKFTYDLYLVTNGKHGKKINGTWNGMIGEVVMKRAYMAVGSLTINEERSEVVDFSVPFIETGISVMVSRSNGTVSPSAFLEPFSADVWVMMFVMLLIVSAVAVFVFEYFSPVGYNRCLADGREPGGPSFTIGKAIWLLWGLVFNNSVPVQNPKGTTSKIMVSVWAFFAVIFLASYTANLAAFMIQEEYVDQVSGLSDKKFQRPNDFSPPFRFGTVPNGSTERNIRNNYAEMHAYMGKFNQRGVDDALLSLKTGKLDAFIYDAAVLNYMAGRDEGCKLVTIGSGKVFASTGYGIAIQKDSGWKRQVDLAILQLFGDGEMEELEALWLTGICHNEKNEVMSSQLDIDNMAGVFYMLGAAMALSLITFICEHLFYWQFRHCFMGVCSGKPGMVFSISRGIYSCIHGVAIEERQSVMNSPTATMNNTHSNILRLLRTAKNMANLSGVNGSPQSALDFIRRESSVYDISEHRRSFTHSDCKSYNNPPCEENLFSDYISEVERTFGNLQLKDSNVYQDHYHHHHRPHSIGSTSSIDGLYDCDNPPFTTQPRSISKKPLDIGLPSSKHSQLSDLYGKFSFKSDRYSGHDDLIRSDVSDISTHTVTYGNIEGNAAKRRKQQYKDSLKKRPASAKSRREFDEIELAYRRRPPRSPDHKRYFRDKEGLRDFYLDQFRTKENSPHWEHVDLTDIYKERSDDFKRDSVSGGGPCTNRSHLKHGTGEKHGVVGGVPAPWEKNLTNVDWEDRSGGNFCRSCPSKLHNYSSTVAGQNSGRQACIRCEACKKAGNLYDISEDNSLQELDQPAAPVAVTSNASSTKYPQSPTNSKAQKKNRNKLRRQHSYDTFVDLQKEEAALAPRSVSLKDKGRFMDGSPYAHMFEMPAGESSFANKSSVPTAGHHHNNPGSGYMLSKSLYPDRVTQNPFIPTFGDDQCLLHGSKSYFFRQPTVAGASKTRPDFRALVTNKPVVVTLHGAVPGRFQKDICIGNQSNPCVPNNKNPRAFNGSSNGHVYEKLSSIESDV
- experiment-notes: Displacement of [3H]ifenprodil from rat brain membrane NR2B receptor relative to ifenprodil
measurement-name: Ratio
Reply with the value as a number alone.

So what does the record say about Ratio for C=C(CN1CCC(Cc2ccccc2)CC1)C(=O)c1ccc(OC)cc1 ?
48

Tell me the measured Ratio of CC(C(=O)c1ccc(NC(=O)CCl)cc1)N1CCC(Cc2ccccc2)CC1 (configuration not stated) , please.
45

Look at this compound and give its reported Ratio. O=C(CN1CCC(Cc2ccc(N=C=S)cc2)CC1)c1ccc(O)cc1
22

For the compound Oc1ccc(C(O)CN2CCC(Cc3ccccc3)CC2)cc1 (configuration not stated) , what Ratio is on record?
16

Endpoint output: Ratio of O=C(CN1CCC(Cc2ccccc2)CC1)c1ccc(O)cc1 . Value?
13

Ratio for CC(C(O)c1ccc(N)cc1)N1CCC(Cc2ccccc2)CC1 (racemic; threo) ?
27

Sample CC(C(O)c1ccc(N)cc1)N1CCC(Cc2ccccc2)CC1 (racemic; erythro) — what was its Ratio?
8.8

Please report the recorded Ratio for CC(C(=O)c1ccc(N=C=S)cc1)N1CCC(Cc2ccccc2)CC1 (configuration not stated) .
62

// query Ratio value for entry O=C(CN1CCC(Cc2ccc([N+](=O)[O-])cc2)CC1)c1ccc(O)cc1
18

Quick one: Ratio of CC(=O)Nc1ccc(C(=O)C(C)N2CCC(Cc3ccccc3)CC2)cc1 (configuration not stated) ?
10

Bench note: what Ratio did C=C(CN1CCC(Cc2ccccc2)CC1)C(=O)c1ccc([N+](=O)[O-])cc1 show?
23

I have this compound here, CC(C(=O)c1ccc(N)cc1)N1CCC(Cc2ccccc2)CC1 (configuration not stated) , and I need its recorded Ratio.
1
